binding signal values for the binders below.
# TARGET_ENTITY: T1, RBFOX1 RRM (Homo sapiens, UniProt Q9NWB1 109-208)
# T1 sequence: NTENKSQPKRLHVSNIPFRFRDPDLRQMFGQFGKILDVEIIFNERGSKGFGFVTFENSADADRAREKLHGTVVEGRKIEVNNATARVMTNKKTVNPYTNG
# PROTOCOL_SUMMARY: EMSA; HiTS-Eq, 1 nM pool, 10 min; buffer printed only for the single-RNA assays: 10 mM Tris pH 7.5, 150 mM NaCl, 3.4 mM EDTA, 0.001% NP-40, 30 C
# CONDITION_NOTES: tags: His6 N-terminal (pET28a); label: 5' 32P
In all, about 16,000 sequences were measured (“ka relative to ugcaugu”: median about 0.0091, highest 2% from about 0.032 on). The sample holds the highest values, similar sequences and a random draw of the others, so the mix is not that of the screen.

Illustrative cases are given below, each with its answer.
[[record]]
binder = "GUUCCAG (DNA:RNA) RNA: GGGAGACCGGAAUUCAGAUUGUCCGUUCCAGUUAAAUCCCGUCGUAGCCACCA DNA 1: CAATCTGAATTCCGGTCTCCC DNA 2: TGGTGGCTACGACGGGATT"
result = "0.0134 KA relative to UGCAUGU"

[[record]]
binder = "GGCUUUU (DNA:RNA) RNA: GGGAGACCGGAAUUCAGAUUGUCCGGCUUUUUUAAAUCCCGUCGUAGCCACCA DNA 1: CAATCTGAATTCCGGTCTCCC DNA 2: TGGTGGCTACGACGGGATT"
result = "0.0115 KA relative to UGCAUGU"

[[record]]
binder = "GCGGGCU (DNA:RNA) RNA: GGGAGACCGGAAUUCAGAUUGUCCGCGGGCUUUAAAUCCCGUCGUAGCCACCA DNA 1: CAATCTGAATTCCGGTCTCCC DNA 2: TGGTGGCTACGACGGGATT"
result = "0.0197 KA relative to UGCAUGU"


# input Note down binding signal recorded for GUCCUGA (DNA:RNA) RNA: GGGAGACCGGAAUUCAGAUUGUCCGUCCUGAUUAAAUCCCGUCGUAGCCACCA DNA 1: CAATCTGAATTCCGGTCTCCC DNA 2: TGGTGGCTACGACGGGATT
# output 0.0213 KA relative to UGCAUGU

# input Note down binding signal recorded for UGAUUCG (DNA:RNA) RNA: GGGAGACCGGAAUUCAGAUUGUCCUGAUUCGUUAAAUCCCGUCGUAGCCACCA DNA 1: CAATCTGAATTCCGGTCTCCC DNA 2: TGGTGGCTACGACGGGATT
# output 0.0228 KA relative to UGCAUGU

# input Note down binding signal recorded for GGGGGCU (DNA:RNA) RNA: GGGAGACCGGAAUUCAGAUUGUCCGGGGGCUUUAAAUCCCGUCGUAGCCACCA DNA 1: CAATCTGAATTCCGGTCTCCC DNA 2: TGGTGGCTACGACGGGATT
# output 0.0377 KA relative to UGCAUGU

# input Note down binding signal recorded for CAUGUGU (DNA:RNA) RNA: GGGAGACCGGAAUUCAGAUUGUCCCAUGUGUUUAAAUCCCGUCGUAGCCACCA DNA 1: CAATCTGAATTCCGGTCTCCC DNA 2: TGGTGGCTACGACGGGATT
# output 0.0132 KA relative to UGCAUGU

# input Note down binding signal recorded for AGCGCGG (DNA:RNA) RNA: GGGAGACCGGAAUUCAGAUUGUCCAGCGCGGUUAAAUCCCGUCGUAGCCACCA DNA 1: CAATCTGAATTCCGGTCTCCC DNA 2: TGGTGGCTACGACGGGATT
# output 0.0172 KA relative to UGCAUGU

# input Note down binding signal recorded for UAACGUU (DNA:RNA) RNA: GGGAGACCGGAAUUCAGAUUGUCCUAACGUUUUAAAUCCCGUCGUAGCCACCA DNA 1: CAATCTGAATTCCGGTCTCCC DNA 2: TGGTGGCTACGACGGGATT
# output 0.00814 KA relative to UGCAUGU
